src = the supplement of paper PMC9254222

Tested on: HEK293T (UBE3A T485A transfected, BAR Wnt reporter)
ASSAY_COMMENT: Renilla luciferase signal (cell health) relative to plate median (fold (linear ratio)); higher = higher Renilla signal
CONDITION_NOTES: concentration: 0.1 uM; 24 h
The full ranking holds about 1,100 compounds; the median of “Renilla luciferase signal (cell health) relative to plate median” is about 0.97, and the highest 2% start at about 1.6. The entries come from a sample that favours the highest values as a whole.
Below, each of the compounds is paired with its reported Renilla luciferase signal value.
Output: the number by itself.

Recorded Renilla luciferase signal, per entry:
| COMPOUND | REPORTED_RESULT |
| --- | --- |
| CN(C)C(=S)[S-].CN(C)C(=S)[S-].[Zn+2] [Ziram] | 0.814 |
| CCC(=O)O[C@H]1CC[C@H]2[C@@H]3CCC4=CC(=O)CC[C@]4(C)[C@H]3CC[C@]12C [Testosterone propionate] | 0.869 |
| CN(C)C(=S)[S-].[Na+] [Sodium dimethyldithiocarbamate] | 0.974 |
| C[C@]12CCC(=O)C[C@@H]1CC[C@@H]1[C@@H]2CC[C@]2(C)[C@@H](O)CC[C@@H]12 [5alpha-Dihydrotestosterone] | 0.867 |

# evaluate next
Just so you know, measured Renilla luciferase signal for CNC(=S)[S-].O.O.O.[Na+] [Metam-sodium hydrate] came out at 1.02
